# protocolText: Metabolic stability in mouse liver microsomes
# Assay type: in vitro ADME
# studyConditions: mouse, pH 7.4, read-out: CLint(mic)
valueType: microsomal CLint at 1 µM

[[record]]
compound = "CN1CCN(c2ccc(OC(F)(F)F)c(Nc3ncc4ccc5c(C(N)=O)nn(CCF)c5c4n3)c2)CC1 [Compound 18]"
result = "103 µL/min/mg"

[[record]]
compound = "Cn1nc(C(N)=O)c2c1-c1nc(Nc3cc(N4CCN(CCO)CC4)ccc3OC(F)(F)F)ncc1CC2 [Compound 20]"
result = "60 µL/min/mg"

[[record]]
compound = "CN1CCN(c2ccc(OC(F)(F)F)c(Nc3ncc4c(n3)-c3c(c(C(N)=O)nn3CCC#N)CC4)c2)CC1 [Compound 4]"
result = "310 µL/min/mg"

[[record]]
compound = "CN1CCN(c2ccc(OC(F)(F)F)c(Nc3ncc4ccc5c(C(N)=O)nn(C)c5c4n3)c2)CC1 [Compound 3]"
result = "103 µL/min/mg"

[[record]]
compound = "CN1CCN(c2ccc(OC(F)(F)F)c(Nc3ncc4c(n3)-c3c(c(C(N)=O)cn3CCO)CC4)c2)CC1 [Compound 2]"
result = "44.2 µL/min/mg"

[[record]]
compound = "CN1CCN(c2ccc(OC(F)(F)F)c(Nc3ncc4c(n3)-c3c(c(C(=O)NNC(N)=O)nn3C)CC4)c2)CC1 [Compound 12]"
result = "41.2 µL/min/mg"

[[record]]
compound = "Cn1nc(C(N)=O)c2ccc3cnc(Nc4cc(N5CCN(CCO)CC5)ccc4OC(F)(F)F)nc3c21 [Compound 16]"
result = "46.4 µL/min/mg"

